# ASSAY COMMENT: photoluminescence quantum yield (fraction); solvent given as SMILES
# EXPERIMENTAL PARAMETERS: in C1CCOC1
In plain terms, low photoluminescence quantum yield, meaning strictly below 0.4, gives class 1, and everything else gives class 0.

Input line: Is photoluminescence quantum yield strictly under 0.4 for the entry CCCCN1C(=O)c2cc(Oc3ccc(C(C)(C)C)cc3)c3c4c(Oc5ccc(C(C)(C)C)cc5)cc5c6c(cc(Oc7ccc(C(C)(C)C)cc7)c(c7c(Oc8ccc(C(C)(C)C)cc8)cc(c2c37)C1=O)c64)C(=O)N(CCCC)C5=O ?
Output line: class 0

Input line: Record: N#C/C(=C\c1ccc(C=C(c2ccccc2)c2ccccc2)cc1)c1ccccc1
Output line: class 1

Input line: Record: F[B-]1(F)OC(c2ccccc2)=C(c2ccccc2)c2oc3ccccc3[n+]21
Output line: class 1

Input line: Record: O=C1c2cccc3c(-n4c5ccccc5c5ccccc54)ccc(c23)C(=O)N1c1ccccc1
Output line: class 1

Input line: Record: NS(=O)(=O)c1ccc(N2N=C(c3ccc(O)cc3)CC2c2ccccc2)cc1 (centres undefined)
Output line: class 0

Input line: Record: CN(C)c1ccc(C(=Cc2ccc(/C=C(\C#N)c3ccccc3)cc2)c2ccc(N(C)C)cc2)cc1
Output line: class 1

Input line: Record: CCn1c2ccccc2c2cc(/C=C/c3cccc(/C=C/c4ccc5c(c4)c4ccccc4n5CC)[n+]3CCCS(=O)(=O)[O-])ccc21
Output line: class 1

Input line: Record: CC1=N/C(=C\c2cccc(N(C)C)c2)C(=O)N1C
Output line: class 1

Input line: Record: CCn1c2ccccc2c2cc(-c3cc(-c4ccc5c(c4)c4ccccc4n5CC)nc(SC)n3)ccc21
Output line: class 1

Input line: Record: C[Si]1(c2ccccc2)C(c2ccc(-n3c4ccccc4c4ccccc43)cc2)=C(c2ccccc2)C(c2ccccc2)=C1c1ccc(-n2c3ccccc3c3ccccc32)cc1
Output line: class 1

Input line: Record: F[B-]1(F)n2c(c3cccc4cccc2c43)=Nc2cccc(Cl)[n+]21
Output line: class 0

====

Consider the following compounds; for each one, report its photoluminescence quantum yield.
# ASSAY COMMENT: photoluminescence quantum yield (fraction); solvent given as SMILES
# EXPERIMENTAL PARAMETERS: in CC#N

Below, each entry is followed by its recorded photoluminescence quantum yield result.
COc1ccc2cc([C@H](C)C(=O)O)ccc2c1 = 0.31
CC(C)Oc1ccc(C#Cc2ccc3ccc(=O)oc3c2)cc1 = 0.034
CN(C)c1ccc(C2=Nc3scc(-c4ccc(C#N)cc4)[n+]3[B-](F)(F)O2)cc1 = 0.02
COC(=O)/C=C/c1ccc2ccc3cccc4ccc1c2c34 = 0.46
CC1=CC(C)=[N+]2C1=C(c1c3ccccc3cc3ccccc13)c1c(C)cc(C)n1[B-]2(F)F = 0.006

I would be grateful if you could provide photoluminescence quantum yield for each of the following entries.
1. c1ccc2c(c1)[nH]c1ncccc12
2. CN(C)c1ccc(C#Cc2ccc(C#N)cc2)cc1
3. N#Cc1ccc(-c2ccc3c(c2)c2cc(-c4ccc(C#N)cc4)ccc2c2c3nc(-c3ccc(N(c4ccccc4)c4ccccc4)cc3)n2-c2ccccc2)cc1
4. c1ccc(Nc2nc(Nc3ccccc3)nc(Nc3ccc4cc5ccccc5cc4c3)n2)cc1
5. COc1ccc2c(c1)-c1ccccc1C2=O
6. Cc1ccc(C2=C3C=C(I)C=[N+]3[B-](F)(F)n3cc(I)cc32)cc1
7. Cc1ccc(C2=C3C=C(I)C=[N+]3[B-](F)(F)n3cccc32)cc1
8. CNCCCC1c2ccccc2C=Cc2ccccc21

Output line:
[0.47, 0.024, 0.23, 0.43, 0.034, 0.005, 0.008, 0.56]
